tgt: T1, human glycophorin A on human red blood cells or red blood cell membranes (human, UniProt P02724 20-150)
T1 construct: whole, on cells; also called hRBC; human RBC membranes
T1 sequence (looked up): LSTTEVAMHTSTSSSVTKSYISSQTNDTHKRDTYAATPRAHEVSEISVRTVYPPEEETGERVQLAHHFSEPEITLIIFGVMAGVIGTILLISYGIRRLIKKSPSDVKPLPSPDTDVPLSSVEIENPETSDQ
experiment.description: ELISA, Fab on coated human RBC membranes
The following binders are listed with their measured binding in ELISA relative to parental Fab values.
quantity.name: binding in ELISA relative to parental Fab

{"columns": ["binder", "test.value"],
 "data": [
  ["TPP-5675, Hu6C12-24 Fab variant VH: (I48M, L70M, T72R) (Fab, V domains shown, Built on the parental Fab TPP-4935) VH: EVQLVQSGAEVKKPGASVKVSCKASGYTFTTYTIHWVRQAPGQGLEWMGYINPSSDYTRYNPKFKDRVTMTRDKSTSTAYMELRSLRSDDTAVYYCQTGTRDYWGQGTTVTVSS VL: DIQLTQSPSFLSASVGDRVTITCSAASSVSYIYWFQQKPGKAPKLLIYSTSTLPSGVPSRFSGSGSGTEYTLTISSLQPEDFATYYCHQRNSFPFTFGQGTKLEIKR", "0.7 relative to parental Fab"],
  ["TPP-5676, Hu6C12-24 Fab variant VH: (I48M, D66G) (Fab, V domains shown, Built on the parental Fab TPP-4935) VH: EVQLVQSGAEVKKPGASVKVSCKASGYTFTTYTIHWVRQAPGQGLEWMGYINPSSDYTRYNPKFKGRVTLTTDKSTSTAYMELRSLRSDDTAVYYCQTGTRDYWGQGTTVTVSS VL: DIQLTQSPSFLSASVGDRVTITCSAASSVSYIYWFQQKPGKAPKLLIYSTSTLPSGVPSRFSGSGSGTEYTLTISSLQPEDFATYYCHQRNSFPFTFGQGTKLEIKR", "0.7 relative to parental Fab"],
  ["TPP-5699, Hu6C12-24 Fab variant VL: (S49A, P54Q) (Fab, V domains shown, Built on the parental Fab TPP-4935) VH: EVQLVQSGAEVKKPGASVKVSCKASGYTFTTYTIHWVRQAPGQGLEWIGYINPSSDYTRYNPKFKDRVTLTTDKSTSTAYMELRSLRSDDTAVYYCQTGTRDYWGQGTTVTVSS VL: DIQLTQSPSFLSASVGDRVTITCSAASSVSYIYWFQQKPGKAPKLLIYATSTLQSGVPSRFSGSGSGTEYTLTISSLQPEDFATYYCHQRNSFPFTFGQGTKLEIKR", "3.1 relative to parental Fab"],
  ["TPP-5837, Hu6C12-24 Fab variant VL: (S24R, A26S, S49A, P54Q, F95Y); VH: (I48M, D66G) (Fab, V domains shown, Built on the parental Fab TPP-4935) VH: EVQLVQSGAEVKKPGASVKVSCKASGYTFTTYTIHWVRQAPGQGLEWMGYINPSSDYTRYNPKFKGRVTLTTDKSTSTAYMELRSLRSDDTAVYYCQTGTRDYWGQGTTVTVSS VL: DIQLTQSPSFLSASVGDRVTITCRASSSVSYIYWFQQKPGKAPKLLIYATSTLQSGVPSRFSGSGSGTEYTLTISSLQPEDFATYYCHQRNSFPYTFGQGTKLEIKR", "9.1 relative to parental Fab"]
]}
